- measurement.target: EPHB2 (UniProt P29323)
- Sequence (P29323 whole entry, looked up): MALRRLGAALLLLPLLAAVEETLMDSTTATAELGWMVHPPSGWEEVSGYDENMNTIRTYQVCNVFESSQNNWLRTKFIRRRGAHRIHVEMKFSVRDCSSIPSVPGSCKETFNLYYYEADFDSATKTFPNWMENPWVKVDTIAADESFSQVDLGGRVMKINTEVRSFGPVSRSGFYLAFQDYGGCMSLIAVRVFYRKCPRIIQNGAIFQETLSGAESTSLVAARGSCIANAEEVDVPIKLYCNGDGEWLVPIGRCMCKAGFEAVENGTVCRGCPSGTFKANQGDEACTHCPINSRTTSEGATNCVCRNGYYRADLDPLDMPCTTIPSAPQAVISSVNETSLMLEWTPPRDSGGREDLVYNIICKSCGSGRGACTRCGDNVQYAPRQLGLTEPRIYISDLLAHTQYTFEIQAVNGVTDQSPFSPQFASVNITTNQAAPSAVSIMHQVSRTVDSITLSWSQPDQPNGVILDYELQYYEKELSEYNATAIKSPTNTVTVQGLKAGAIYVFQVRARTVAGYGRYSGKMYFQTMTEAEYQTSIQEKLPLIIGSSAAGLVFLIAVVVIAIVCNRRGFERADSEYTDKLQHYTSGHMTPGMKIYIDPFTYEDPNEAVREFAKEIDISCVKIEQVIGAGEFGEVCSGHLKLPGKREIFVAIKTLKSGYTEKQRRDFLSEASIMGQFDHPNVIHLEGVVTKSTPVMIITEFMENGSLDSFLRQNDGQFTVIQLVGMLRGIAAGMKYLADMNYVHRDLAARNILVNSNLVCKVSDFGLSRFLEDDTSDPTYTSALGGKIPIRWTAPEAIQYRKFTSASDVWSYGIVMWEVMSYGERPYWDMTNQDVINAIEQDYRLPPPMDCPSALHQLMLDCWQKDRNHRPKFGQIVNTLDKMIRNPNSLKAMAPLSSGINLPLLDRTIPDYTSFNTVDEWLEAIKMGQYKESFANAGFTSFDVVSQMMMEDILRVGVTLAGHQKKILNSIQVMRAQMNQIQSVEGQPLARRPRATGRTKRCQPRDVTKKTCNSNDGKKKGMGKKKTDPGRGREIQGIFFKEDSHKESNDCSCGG
- assay.notes: phosphorylation enrichment, bacterial display (enrichment ratio); higher = better substrate or ligand; peptides without Tyr show the background;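 note: 11-residue human phosphosite peptides and single-mutation variants displayed on the E. coli surface, counted by deep sequencing, each peptide's frequency after selection divided by its frequency in the unselected input library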;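 note: frequency after pTyr selection over input frequency; kinase dosed for 20-30% of maximal phosphorylation in three min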
Use 0.7 as the dividing line for phosphorylation enrichment, with the line itself on the Yes side and lower values as No.

{"sequence.input": "IPGRYYETGSI [PAX2_Y73_L69P]", "measurement.target": "EPHB2 (UniProt P29323)", "group.label": "No"}
{"sequence.input": "ENRKYYMDLKE [PURA_Y156]", "measurement.target": "EPHB2 (UniProt P29323)", "group.label": "No"}
{"sequence.input": "KNNSIYVLANI [VNN1_Y134_V136L]", "measurement.target": "EPHB2 (UniProt P29323)", "group.label": "No"}

Textbook exercise: given the entry YPLELYERVRI [PRKCG_Y312_M317I] , state whether its phosphorylation enrichment is greater than or equal to 0.7.
Yes

Textbook exercise: given the entry TSKLNYLDPRI [TOP1_Y723] , state whether its phosphorylation enrichment is greater than or equal to 0.7.
Yes

Textbook exercise: given the entry QQLDKYQELLD [LMNA_Y359_E358K] , state whether its phosphorylation enrichment is greater than or equal to 0.7.
Yes

Textbook exercise: given the entry TEDPEYDVQSK [PTCHD3_Y335] , state whether its phosphorylation enrichment is greater than or equal to 0.7.
No

Textbook exercise: given the entry SEDANYKRVSC [TTC3_Y1288] , state whether its phosphorylation enrichment is greater than or equal to 0.7.
No

Textbook exercise: given the entry HAVFIYDICHV [TWNK_Y508_V507I_YF] , state whether its phosphorylation enrichment is greater than or equal to 0.7.
Yes

Textbook exercise: given the entry RGLQVYHKRNA [LRP2_Y2010_R2012K] , state whether its phosphorylation enrichment is greater than or equal to 0.7.
No
